Origin of the recorded values: the supplement of paper PMC13380429

- Tested on: U2OS
- assay-summary: cell viability relative to DMSO; higher = less toxic
- condition-notes: 72 h; 10000 nM
// reported cell viability per item
Report the value in % with no unit label.

Here's what some known entries look like.
{"columns": ["compound", "cell viability / %"],
 "data": [
  ["Cc1nc2sccn2c(=O)c1CCN1CCC(=C(c2ccccc2)c2ccc(F)cc2)CC1", 95],
  ["NS(=O)(=O)c1cc2c(cc1Cl)N=CNS2(=O)=O [chlorothiazide]", 99],
  ["CCC(=O)O[C@]1(C(=O)CCl)[C@@H](C)C[C@H]2[C@@H]3CCC4=CC(=O)C=C[C@]4(C)[C@@]3(F)[C@@H](O)C[C@@]21C [clobetasol-propionate]", 91.2],
  ["CCc1ccc(/C=C2/SC(=S)NC2=O)cc1", 96.7],
  ["COc1cc(-c2cc(-c3cccc(O)c3)cnc2N)cc(OC)c1OC", 64.5]
]}

CC[C@H](NC(=O)c1c(C)c(-c2ccccc2)nc2ccccc12)c1ccccc1 yielded cell viability of 102

Just so you know, measured cell viability for Cc1ccc(Nc2c(F)cccc2Cl)c(CC(=O)O)c1 came out at 105

Record summary for Oc1cccc(O)c1 : reported cell viability = 103

Lab book: cell viability of O=C(NC1CCN(Cc2ccccc2)CC1)c1ccc(I)cc1 noted as 98.8

###

- Test system: U2OS
- assay-summary: cell viability relative to DMSO; higher = less toxic
- condition-notes: 72 h; 1 nM
Consider the following molecules and their measured cell viability readings.
Dear colleague, please return just the value in %, with no unit written.

See these solved cases before continuing.
{"columns": ["molecule", "measurement-units", "experimental-value"],
 "data": [
  ["CCOC(=O)c1c(CSc2ccccc2)n(C)c2cc(Br)c(O)c(CN(C)C)c12 [arbidol]", "%", 98.3],
  ["CC1(C)S[C@@H]2[C@H](NC(=O)[C@H](N)c3ccc(O)cc3)C(=O)N2[C@H]1C(=O)O [amoxicillin]", "%", 102],
  ["Nc1nc(=O)c(Br)c(-c2ccccc2)[nH]1 [bropirimine]", "%", 92.8],
  ["Oc1ccc(CC2NCCc3cc(O)c(O)cc32)cc1 (configuration not stated) [higenamine]", "%", 98.1],
  ["O=C(NOCC1CC1)c1ccc(F)c(F)c1Nc1ccc(I)cc1Cl", "%", 101]
]}

Next up:
// sample C[C@]12CCC(=O)C=C1CC[C@@H]1[C@@H]2CC[C@@]2(C)[C@H]1CC[C@]2(C)O [17-alpha-Methyltestosterone] , its cell viability was 97.6

###

cell viability for assorted compounds
- Tested on: Caco-2
- assay-summary: cell viability relative to DMSO; higher = less toxic
- condition-notes: 72 h; 10000 nM
# number only, unit % dropped from output

Log: Caco-2, compound CCC[C@H](N[C@H]1CCc2cc(F)cc(F)c2C1)C(=O)Nc1cn(C(C)(C)CNCC(C)(C)C)cn1 , cell viability = 86.1

###

Listed next: entries and their corresponding cell viability.
- System: Calu-3
- assay-summary: cell viability relative to DMSO; higher = less toxic
- condition-notes: 72 h; 1000 nM
Numbers only here, please. The scale is %.

Here is how some compounds turned out for cell viability.
{"columns": ["compound", "cell viability (%)"],
 "data": [
  ["CC(=O)N1N=C(c2ccc(N)cc2)c2cc3c(cc2C[C@H]1C)OCO3", 95.6],
  ["CC(c1cc2ccccc2s1)N(O)C(N)=O (centres undefined)", 96.1],
  ["CN(C)C1CCN(C(=O)c2ccc(NC(=O)Nc3ccc(-c4nc(N5CCOCC5)nc(N5CCOCC5)n4)cc3)cc2)CC1", 65.6]
]}

Kindly note: Calu-3, OCCOc1ccc(/C(=C(/CCCl)c2ccccc2)c2ccccc2)cc1 , cell viability value reported: 96.6

The reported Calu-3 cell viability of C[C@H]1COC2=C1C(=O)C(=O)c1c2ccc2c1CCCC2(C)C is 107

// assay Calu-3, entry COc1ccc([C@]2(C#N)CC[C@@H](C(=O)O)CC2)cc1OC1CCCC1 , cell viability value = 88.9

// compound CC1(C)S[C@@H]2[C@H](N3C(=O)[C@@H](c4ccccc4)NC3(C)C)C(=O)N2[C@H]1C(=O)O , assay Calu-3, cell viability value: 100

Lab note: compound CN(CCOP(=O)(O)O)C(=N)N [creatinol-phosphate] tested on Calu-3; recorded cell viability was 92.8

Calu-3 data for c1ccc2oc(C3=NCCN3)cc2c1 ; its cell viability: 100

Measured on Calu-3, CCc1cc(-c2[nH]nc(C)c2-c2ccc3c(c2)OCCO3)c(O)cc1O has a documented cell viability of 89.7

###

- Test system: U2OS
- assay-summary: cell viability relative to DMSO; higher = less toxic
- condition-notes: 72 h; 1000 nM
Structures can show the parent of a compound that is named as a salt.
The entries below come with measured cell viability values attached.
Give the number; % is assumed, so skip it.

{"columns": ["molecule", "experimental-endpoint", "experimental-value"],
 "data": [
  ["CCC1=C[C@@H]2CN3CCc4c([nH]c5ccccc45)[C@@](C(=O)OC)(C2)[C@@H]13", "cell viability", 97.1],
  ["COc1ccc(-c2ccc3cc(C(=O)O)ccc3c2)cc1C12CC3CC(CC(C3)C1)C2", "cell viability", 99.4],
  ["COc1ccc(S(=O)(=O)N2CCCN(S(=O)(=O)c3ccc(OC)c(OC)c3)CC2)cc1OC", "cell viability", 100],
  ["CCC/C=C1\\OC(=O)C2=C1CCC=C2 [ligustilide]", "cell viability", 95.4],
  ["Cc1nc(NC(=O)N2CCC[C@H]2C(N)=O)sc1-c1csc(C(C)(C)C)n1", "cell viability", 93],
  ["CN(C)C1CCN(C(=O)c2ccc(NC(=O)Nc3ccc(-c4nc(N5CCOCC5)nc(N5CCOCC5)n4)cc3)cc2)CC1", "cell viability", 92.1]
]}

// cell viability value for CSc1nc2ccc3nc(NC(=O)C(c4ccccc4)c4ccccc4)sc3c2s1 : 97.1

Entry S=C(S)N1CCCC1 [pyrrolidine-dithiocarbamate] , cell viability reported as 95.4

response.value for CC(C)c1cc(C(C)C)c(CC(=O)NS(=O)(=O)Oc2c(C(C)C)cccc2C(C)C)c(C(C)C)c1 (field: cell viability) = 99.7

According to the records, this molecule CC(C)(O)C(=O)N1CCN(c2ccc(C(F)(F)F)c(C3=C(c4c[nH]c5ccccc45)C(=O)NC3=O)c2)CC1 displays cell viability of 102

The reported cell viability of the molecule CC(C)(F)C[C@H](N[C@@H](c1ccc(-c2ccc(S(C)(=O)=O)cc2)cc1)C(F)(F)F)C(=O)NC1(C#N)CC1 was 102

What the record says about Cc1nnc(NS(=O)(=O)c2ccc(N)cc2)s1 : cell viability is 99.2

// COc1cc(Nc2ncc3c(n2)-c2ccc(Cl)cc2C(c2c(F)cccc2OC)=NC3)ccc1C(=O)O : cell viability value = 78.2

cell viability measured on Cc1nc2sccn2c(=O)c1CCN1CCC(=C(c2ccccc2)c2ccc(F)cc2)CC1 = 98.7

Sample CC1(C)O[C@@H]2C[C@H]3[C@@H]4CCC5=CC(=O)CC[C@]5(C)[C@@]4(F)[C@@H](O)C[C@]3(C)[C@]2(C(=O)CCl)O1 [halcinonide] ; cell viability observed: 89.6

Note to self: cell viability recorded for CO/N=C(\C(=O)N[C@@H]1C(=O)N2C(C(=O)O)=C(CSC(=O)c3ccco3)CS[C@H]12)c1csc(N)n1 [CEFTIOFUR HYDROCHLORIDE] was 97.4

###

- Test system: U2OS
- assay-summary: drug sensitivity score (DSS) for viability; higher = more toxic; extreme values may be limits of the assay
- condition-notes: 72 h
The entries below are paired with their reported drug sensitivity score.
// no unit, no text: just the number

{"columns": ["mol-smiles", "experimental-endpoint", "experimental-value"],
 "data": [
  ["C=C(C)[C@@H]1[C@H]2OC(=O)[C@@H]1[C@]1(O)C[C@H]3O[C@]34C(=O)O[C@H]2[C@]14C", "drug sensitivity score", 0],
  ["CSc1nc2ccc3nc(NC(=O)C(c4ccccc4)c4ccccc4)sc3c2s1", "drug sensitivity score", 0],
  ["O=C(O)CNC(=O)c1nc(Cl)c2ccccc2c1O", "drug sensitivity score", 0],
  ["Cc1ccc(Oc2ccccc2-c2csc(N=C3NCCCN3)n2)c(C)c1", "drug sensitivity score", 0]
]}

According to the records, this compound Cc1ccc(Nc2ncc3c(n2)N(C)C(=O)N(c2cc(NC(=O)c4cccc(C(F)(F)F)c4)ccc2C)C3)cn1 displays drug sensitivity score of 19

// drug sensitivity score value for CCCCOc1cc(C(=O)NCCN(CC)CC)c2ccccc2n1 : 0

// recorded drug sensitivity score for C=C[C@@](C)(/C=C/c1ccc(O)cc1)CCC=C(C)C : 0

###

- Tested on: Calu-3
- assay-summary: cell viability relative to DMSO; higher = less toxic
- condition-notes: 72 h; 10000 nM
The entries below come with measured cell viability values attached.
Kindly answer with a numeric value in %, unit omitted.

Answered examples (3):
{"columns": ["compound", "experimental-endpoint", "experimental-value"],
 "data": [
  ["C/C=C/C=C/C(=O)O [sorbic-acid]", "cell viability", 110],
  ["COc1ccccc1N1CCN(CCN2C(=O)CC3(CCCC3)CC2=O)CC1 [BMY-7378]", "cell viability", 106],
  ["C=C[C@]1(C)C[C@@H](OC(=O)CSC(C)(C)CNC(=O)[C@H](N)C(C)C)[C@]2(C)[C@H](C)CC[C@]3(CCC(=O)[C@H]32)[C@@H](C)[C@@H]1O [valnemulin]", "cell viability", 98.9]
]}

Now for the compound whose cell viability we want.
Note to self: cell viability recorded for CC[C@H](NC(=O)c1c(C)c(-c2ccccc2)nc2ccccc12)c1ccccc1 was 87.7
